- Tested on: NCI/ADR-RES ovarian
- Procedure details: NCI-60 one-dose screen, 48 h
- Measurement parameters: 10 µM unless noted
About 83,000 compounds went through this panel and 20% of them were active in at least one assay; those are over-represented in the sample as a whole. The source made the active and inactive calls. The calls were made as follows: active = growth percent below 10; inactive = the rest.
# output must be one of active, inactive

Known results for molecules:
Molecule: CN(Cc1ccccc1)c1nc(Cl)c(C2CC(c3ccc(Cl)cc3)=NN2c2cc(Cl)cc(Cl)c2)s1 (stereo not given)
Category: inactive
--
Molecule: Cc1[nH]c(C(=O)Nc2ccccc2OC2CCNC2)c(Cl)c1Cl (stereo not given)
Category: inactive
--
Molecule: N#C/C(=C/C=C/c1ccccc1)S(=O)c1ccccc1 (stereo not given)
Category: inactive
--
Molecule: C=CCn1c(SCC(=O)Nc2ccc(C(=O)/C=C/c3ccc(Cl)cc3)cc2)nnc1-c1ccc(Cl)c(Cl)c1
Category: inactive
--
Molecule: CCOC(=O)c1c(N)sc2cc(O)ccc12
Category: inactive

Recorded test outcome, item "Cc1ccc2c(n1)C[C@H](C(C)(C)O)CC[C@H]2C" inactive

Recorded test outcome, item "CN(C)CCOc1nc2c3cc([N+](=O)[O-])ccc3nn2c2ccccc12" inactive

Recorded test outcome, item "CCOc1cc(\C=N/N=C(N)/C(N)=N\N=C/c2ccc(O)c(OCC)c2)ccc1O" inactive

Recorded test outcome, item "C#CCOc1cc(/C=N/Nc2nc(-c3ccc(OC)cc3)cs2)ccc1O" inactive

Recorded test outcome, item "CCCCCCCCOC(=O)c1c(C)[nH]c(/C=C2\N=C(c3ccc[nH]3)C=C2OC)c1C" inactive

Recorded test outcome, item "COc1ccc(-c2nc(SCCC(C)C)nc(N/N=C(/C)c3ccc(N)cc3)c2C#N)cc1" inactive

Recorded test outcome, item "CC(=O)OCCOc1cc(Cl)c(Cl)cc1Cl" inactive

Recorded test outcome, item O=C1CCC(C(=O)N/N=C/c2ccc([N+](=O)[O-])cc2)N1 (stereo not given) inactive

Recorded test outcome, item "C#CCOc1cccc(-c2ncnc3cc(NC(=O)CCl)ccc23)c1" active

Recorded test outcome, item CC(Cc1cccc2ccccc12)C(N)=O (stereo not given) inactive

Recorded test outcome, item "N#Cc1nn(-c2ccccn2)c(N)c1C#N" inactive

Recorded test outcome, item "O=C(/C=C/c1ccco1)Nc1ncc(Cc2ccc(F)cc2)s1" active

Recorded test outcome, item "O=C(/C=C\c1ccc(O)c(O)c1)c1ccccc1O" inactive

Recorded test outcome, item "Cc1cc([N+](=O)[O-])ccc1NC(=O)c1ccc2c(c1)nc(-c1ccccc1)n2C1CCCCC1" inactive

---

- Tested on: HCT-116 colon
- Procedure details: NCI-60 one-dose screen, 48 h (100 = growth as untreated, 0 = no growth, -100 = all killed)
- Measurement parameters: 10 µM unless noted
This is part of a sample that, as a whole, favours compounds with a hit. Of some 83,000 tested, about 20% had one in any assay.
Reported growth values for a set of compounds
Lab book: enter the figure in %, no units written.

Compound: N#Cc1nn(-c2ccccn2)c(N)c1C#N
Target desc: HCT-116 colon
growth [%]: 87.7

For this compound ( CCN(CC)CCCC(Nc1c2ccc(Cl)cc2nc2ccc(OC)cc12)c1ccncc1 (centres undefined) ), measured growth is 60.8

For this compound ( COc1cc(C2=Nc3c(N)nc(N)nc3NC(c3cccc(Nc4ccnc5cc(C(F)(F)F)ccc45)c3)C2)cc(OC)c1OC (centres undefined) ), measured growth is 48.9

For this compound ( "O=C1NCCN1/N=C/c1c(Cl)n(Cc2ccc(Cl)cc2)c2ccccc12" ), measured growth is 89.5

For this compound ( "C=CN(C(=O)N1CCN(c2cc3c(cc2F)c(=O)c(C(=O)O)cn3C2CC2)CC1)c1nc(-c2ccc(C)cc2)cs1" ), measured growth is 10.9

For this compound ( "N=C(N)c1ccc(-c2ccc(-c3ccc(Cl)cc3Cl)s2)nc1" ), measured growth is -69.5

---

Reported growth values for a set of compounds
- Test system: RXF 393 renal
- Procedure details: NCI-60 one-dose screen, 48 h (100 = growth as untreated, 0 = no growth, -100 = all killed)
- Measurement parameters: 10 µM unless noted
Compounds without any hit were thinned out: in the full panel of roughly 83,000, 20% have a hit.
Lab book: enter the figure in %, no units written.

Given smiles: CC(=O)Oc1ccccc1C(=O)N(Cc1ccc2c(Cl)cc(Cl)c(O)c2n1)c1ccccc1
Measured value: 60.7

Given smiles: C=C(C)[C@@H]1CC[C@]2(C(=O)NC(C)=O)CC[C@]3(C)[C@H](CC[C@@H]4[C@@]5(C)CCCNC(C)(C)[C@@H]5CC[C@]43C)[C@@H]12
Measured value: 25.2

Given smiles: Cc1cc2c(c(C)n1)CN(C(=O)Nc1nc(-c3cncs3)ccc1N)C2
Measured value: 111

// moving on: another record for growth
For this compound ( "CNC(=O)c1cc(Oc2ccc3nc(NC(=O)NC(C)C)sc3c2)ccn1" ), measured growth is 95.4

---

- Test system: T-47D breast
- Procedure details: NCI-60 one-dose screen, 48 h (100 = growth as untreated, 0 = no growth, -100 = all killed)
- Measurement parameters: 10 µM unless noted
About 83,000 compounds went through this panel and 20% of them were active in at least one assay; those are over-represented in the sample as a whole. Activity calls are given as the source filed them. How the source made its calls: active means growth percent below 10; inactive means the rest.
Reported growth values for a set of compounds

Field: example entries. Status: answers known.
Compound: Nc1nc(N)c2c(n1)NC(c1ccc3c(c1)OCO3)CC(c1cccc(Nc3ccncc3)c1)=N2 (centres undefined)
growth: 88.5% (inactive)
--
Compound: C=C1CC[C@@H]2[C@](C)(COC(C)=O)[C@H](OC(C)=O)CC[C@@]2(C)[C@@H]1CC(Nc1ccc(S(=O)(=O)Nc2nccc(C)n2)cc1)C1=CCOC1=O (some centres undefined)
growth: 69.1% (inactive)

For this compound ( "O=C(CSc1nc(-c2ccccc2)cn1-c1ccc(Cl)cc1)c1ccc([N+](=O)[O-])cc1" ), measured growth is 71.3% (inactive)

For this compound ( "CN1CCN(c2ccc(Nc3ncc4[nH]c(=O)n(Cc5ccccc5N)c4n3)cc2)CC1" ), measured growth is 75.3% (inactive)

---

- System: HCC-2998 colon
- Procedure details: NCI-60 one-dose screen, 48 h
- Measurement parameters: 10 µM unless noted
The panel holds about 83,000 compounds, 20% with a hit somewhere; the sample as a whole holds those more often. Calls of active or inactive are those of the source. The calls were made as follows: active = growth percent below 10; inactive = the rest.
# output must be one of 1 (yes) = active, 0 (no) = inactive

Known results for compounds:
Given smiles: COc1cccc2cc(N(C)c3ncnc4ccccc34)ccc12
Category: 0 (no)

Given smiles: COC(=O)c1nc(-c2ccc(C)cc2)oc1N1CCOCC1
Category: 0 (no)

Given smiles: COc1ccc(N/N=C/c2ccc3c(c2)Sc2ccccc2N3C)cc1
Category: 0 (no)

Given smiles: CN(CCNc1ccc(C(=N)N)cc1)c1ccc(C(=N)N)cc1
Category: 0 (no)

Recorded test outcome, item "CC/C(=C(/c1ccc(Cl)cc1)c1ccc(OCCN2CCCCCC2)cc1)c1ccccc1" 0 (no)

Recorded test outcome, item "COC(=O)c1c(C)nc(C)c2c1C(=O)C(Br)=C(NCCCCO)C2=O" 0 (no)

---

- Test system: HCT-116 colon
- Procedure details: NCI-60 one-dose screen, 48 h
- Measurement parameters: 10 µM unless noted
About 83,000 compounds went through this panel and 20% of them were active in at least one assay; those are over-represented in the sample as a whole. The source made the active and inactive calls. The calls were made as follows: active = growth percent below 10; inactive = the rest.
# output must be one of active, inactive

Molecule: CC(C)n1cc(C2=C(c3cccc4ccccc34)C(=O)NC2=O)c2cc(Br)ccc21
Category: inactive

Okay, next one:
Recorded test outcome, item "COC12C=C/C(=C(/C(=O)OCc3ccccn3)C(=O)CCCCCCCCC3(OC)C=C/C(=C(/C(=O)OCc4ccccn4)C(=O)CCCCCCCC1)O3)O2" active

---

- Test system: SN12C renal
- Procedure details: NCI-60 one-dose screen, 48 h (100 = growth as untreated, 0 = no growth, -100 = all killed)
- Measurement parameters: 10 µM unless noted
The panel holds about 83,000 compounds, 20% with a hit somewhere; the sample as a whole holds those more often.
Define the label as condition met when growth is strictly less than 60% and as condition not met in all remaining cases.

Threshold test, growth < 60%: O=C1C=CC2(O)OC(c3ccccc3)CC(=O)C2=C1O (stereo not given) condition not met

---

Reported growth values for a set of compounds
- System: HCT-15 colon
- Procedure details: NCI-60 one-dose screen, 48 h (100 = growth as untreated, 0 = no growth, -100 = all killed)
- Measurement parameters: 10 µM unless noted
About 83,000 compounds went through this panel and 20% of them were active in at least one assay; those are over-represented in the sample as a whole. Active and inactive are the calls of the source. The calls were made as follows: active = growth percent below 10; inactive = the rest.

Field: example entries. Status: answers known.
Compound: CCN1C(=O)N(CC)C2C1NC(=S)N2/N=C/C=C/c1ccccc1 (stereo not given)
Readout label: growth
Measured value: 12.4% (inactive)

Compound: N#CC1=C(N)Oc2c(ccc3cccnc23)C1c1ccccc1 (stereo not given)
Readout label: growth
Measured value: 28% (inactive)

Compound: C#Cc1ccc(NC(=O)Cc2ccc(/C=C/C(=O)c3nccn3C)cc2)cc1
Readout label: growth
Measured value: 23% (inactive)

For this compound ( "Cc1ccc(-c2nc(C#N)c(S(=O)(=O)n3nc(C)cc3N)o2)cc1" ), measured growth is 49.2% (inactive)

For this compound ( "Cc1c(N2CCCCC2)[nH]c2ccccc12" ), measured growth is 131% (inactive)

For this compound ( "c1ccc(Cn2cc3c(c2)-c2nc(Nc4ccccc4)ncc2CC3)cc1" ), measured growth is 116% [100 µM] (inactive)

For this compound ( "CN(C)CCOc1nc2c3cc([N+](=O)[O-])ccc3nn2c2ccccc12" ), measured growth is 25.9% (inactive)

For this compound ( "CC(C)(C#N)c1cc(C(=O)Nc2cc(Nc3ncccc3-c3ncnc4nc[nH]c34)ccc2F)cc(C(F)(F)F)c1" ), measured growth is 54% (inactive)

For this compound ( "O=C(c1ccc(F)cc1)C1CCN(CCn2c(=O)[nH]c3ccccc3c2=O)CC1" ), measured growth is 105% (inactive)

For this compound ( "COC(=O)c1ccc(-n2cc(CCCOS(=O)(=O)c3ccc(F)cc3)nn2)cc1" ), measured growth is 98.1% (inactive)
